- Test system: HOP-92 NSCLC
- PROTOCOL SUMMARY: NCI tumour cell line growth inhibition, 48 h
Listing of recorded TGI by entry.

# COMPOUND, ASSAYED TARGET, TGI
rows = [
    ("CC(SC1=CC(=O)c2c(O)ccc(O)c2C1=O)C(=O)O (stereo unspecified)", "HOP-92 NSCLC", "> 83.1 µM"),
    ("COC1C(O)=C2C(=O)OC(C)(O)/C=C/C=C\\C=C/C=C/C(c3ccccc3)NC(=O)/C=C/C=C/C=C/C=C/C2(C)C1O (stereo unspecified)", "HOP-92 NSCLC", "0.00909 µM"),
    ("Cc1ccc(-n2c(C)nc3c2C(=O)c2ccccc2C3=O)cc1", "HOP-92 NSCLC", "> 100 µM"),
]

QUERY: Bench note: what TGI did O=C1CC(O)c2c(Cl)sc(Cl)c21 (stereo unspecified) show?
RESULT: 7.89 µM

QUERY: What value of TGI has been reported for the following compound? CN(C)CCCOC(=O)C(O)(Cc1ccccc1)C1CC1 (stereo unspecified)
RESULT: > 100 µM

QUERY: Given the compound N#C/C(=C(\O)C(=O)O)c1ccc(-c2cccc3ccccc23)cc1 , what is its reported TGI?
RESULT: > 100 µM

---

- Tested on: MOLT-4 leukemia
- PROTOCOL SUMMARY: NCI tumour cell line growth inhibition, 48 h
Reported TGI by item:
Report the figure in µM without appending any unit label.

# COMPOUND, MEASURE UNIT, TGI
rows = [
    ("CCn1c2c(c3c(C(=O)OC)c(O)ccc31)C(=O)c1ccccc1C2=O", "µM", 61.5),
    ("CC[C@@]1(OC(=O)CCC(=O)O)C(=O)OCc2c1cc1n(c2=O)Cc2cc3ccccc3nc2-1", "µM", 0.163),
    ("COc1ccc(CNc2nc3ccccc3nc2-c2cccs2)cc1", "µM", 45.4),
    ("CCOC(OC1=C(C#N)CCC1)C(CC)[Se]c1ccccc1 (stereo not given)", "µM", 48.8),
]

QUERY: Reported TGI for MOLT-4 leukemia, given N#CC(c1ccccc1)c1cccc2ccccc12 (stereo not given) ?
RESULT: 57.6

QUERY: // lookup TGI | system=MOLT-4 leukemia | key= CCCCCCCCCCCC(=O)C1=C(O)C(O)CCC1=O (stereo not given)
RESULT: 60.3

QUERY: Entry CC1(C)C(=O)/C(=C\c2ccco2)C[C@]2(C)[C@H]3CC=C4[C@@H]5C[C@](C)(C(=O)O)CC[C@]5(C)CC[C@@]4(C)[C@]3(C)CC[C@@H]12 , system MOLT-4 leukemia: what TGI was measured?
RESULT: 26.7

QUERY: Give the reported TGI for CCN(CC)CCNc1ccc(N=Nc2ccc(S(N)(=O)=O)cc2)c2ccccc12 (system: MOLT-4 leukemia).
RESULT: 25.6

QUERY: Record lookup: for MOLT-4 leukemia, what TGI belongs to Brc1ccc2c(c1)C1=C(CO2)Cc2ccccc2O1 ?
RESULT: 66.1

---

- Tested on: SR leukemia
- PROTOCOL SUMMARY: NCI tumour cell line growth inhibition, 48 h
OBSERVED PROPERTY: log10 of TGI (log10 of the value in µM)
Heads up, the numbers here are log10 of TGI in µM units.

Would you please look over these solved cases?
# MOLECULE, ASSAYED TARGET, log10 of TGI
data = [
    ("c1ccc2c(NCCCCCCCCNc3c4ccccc4nc4ccccc34)c3ccccc3nc2c1", "SR leukemia", -0.12),
    ("CC[C@H]1C=CCC[C@@]2(C[C@@H]3CC[C@@H]4[C@H](C(=O)OCCCCCCCCCCCCCCCC(=O)N(CCCN)C[C@@H](O)CCN)[C@]5(CCC[C@@H](C)O5)NC(=[N+]34)N2)O1", "SR leukemia", -0.40),
    ("Cc1ccc(N2C(=O)C(Cl)=C(Nc3cccc(O)c3)C2=O)cc1Cl", "SR leukemia", 1.48),
]

QUERY: Which log10 of TGI value is on record for COc1ccc(N=C/C=C/Nc2ccc(OC)cc2)cc1 ?
RESULT: 1.05

QUERY: Quick one: log10 of TGI for CCN(CC)CCNc1ccc(N=Nc2ccc(S(N)(=O)=O)cc2)c2ccccc12 ?
RESULT: 0.69

QUERY: For the molecule O=C(CSc1nc2ccc(I)cc2c(=O)n1Cc1ccccc1)Nc1ccc(Br)cc1 , what log10 of TGI is on record?
RESULT: 1.44

QUERY: Requested read-out: log10 of TGI. Entry: Clc1ccc(-c2nc(-c3ccc(Cl)cc3)[s+]s2)cc1
RESULT: 1.97

QUERY: For O=C1/C(=C/c2cccs2)N=C(c2ccccc2)N1C1Nc2cc3c(cc2S1)NC(N1C(=O)/C(=C/c2cccs2)N=C1c1ccccc1)S3 (stereo not given) , what is its reported log10 of TGI?
RESULT: 1.49

QUERY: For the molecule COc1cccc(/C=C/C2=NN(c3cccc(S(=O)(=O)O)c3)C3(C2)SCC(=O)N3c2nc3ccccc3s2)c1 (stereo not given) , what log10 of TGI is on record?
RESULT: 1.80

QUERY: Endpoint output: log10 of TGI of O=[N+]([O-])/C=C\c1ccc2c(c1)OCO2 . Value?
RESULT: 0.91

QUERY: Given NCCCCCCNc1cc(-c2cccc(OC(F)(F)F)c2)nc2ccc(N3CCCC3)cc12 , state its recorded log10 of TGI.
RESULT: 0.24

QUERY: Given the molecule c1ccc(COc2ccc3[nH]c4c(ncc5[nH]c6ccccc6c54)c3c2)cc1 , what is its reported log10 of TGI?
RESULT: 1.48

---

- System: RXF 393 renal
- PROTOCOL SUMMARY: NCI tumour cell line growth inhibition, 48 h
TGI overview

Recorded TGI, per entry:
# COMPOUND, TGI
records = [
    ("CCOC(=O)/C=C(/C(=O)OCC)n1cc(C)c(=O)n(Cc2cnnn2CCCCOC(C)=O)c1=O", "> 100 µM"),
    ("COc1cccc(/C=C/C2=NN(c3cccc(S(=O)(=O)O)c3)C3(C2)SCC(=O)N3c2nc3ccccc3s2)c1 (stereo unspecified)", "> 100 µM"),
    ("CC(=O)O[C@H]1/C(=C/c2ccc(N(C)C)cc2)C[C@H]2[C@@H]3CC=C4C[C@@H](N5CCCC5)CC[C@]4(C)[C@H]3CC[C@]12C", "> 100 µM"),
    ("OC1CN=C2c3ccccc3C(O)(c3ccc(Cl)cc3)N2C1 (stereo unspecified)", "> 100 µM"),
]

Turning now to a further compound:
QUERY: Need TGI, item O=C(O)C(Cc1ccc(O)c([N+](=O)[O-])c1)N1C(=O)c2ccccc2C1=O (stereo unspecified)
RESULT: > 100 µM

---

- Test system: HOP-62 NSCLC
- PROTOCOL SUMMARY: NCI tumour cell line growth inhibition, 48 h
OBSERVED PROPERTY: TGI (µM)
The response must be a number in µM with no trailing unit.

# STRUCTURE SMILES STRING, OBSERVED PROPERTY, MEASURED NUMBER
data = [
    ("O=C1c2cccc3cc([N+](=O)[O-])cc(c23)C(=O)N1CCCN1CCN(CCCN2C(=O)c3cccc4cc([N+](=O)[O-])cc(c34)C2=O)CC1", "TGI", 33.8),
]

QUERY: Item under review: NC(N)=N/N=C/c1c(-c2cc(Cl)sc2Cl)nc2n1CCS2 . Reported TGI?
RESULT: 15.8

QUERY: // TGI lookup, key: CCN(CC)C(=S)SSC1CCCCC1
RESULT: 77.9

QUERY: Looking for the measured TGI of Cc1ccc2c3c1O[C@H]1c4nc5ccccc5cc4C[C@@]4(O)[C@@H](C2)N(CC2CC2)CC[C@]314 , can you help?
RESULT: 31.3

QUERY: Bench note: what TGI did CCCN(CCC)c1c([N+](=O)[O-])cc(S(N)(=O)=O)cc1[N+](=O)[O-] show?
RESULT: 32

QUERY: Would you mind telling me what TGI value was observed for CCn1c2c(c3c(C(=O)OC)c(O)ccc31)C(=O)c1ccccc1C2=O ?
RESULT: 30.1

QUERY: I would be grateful if you could share the reported TGI for Cc1c2ncccc2c(C)c2c1[nH]c1ccccc12 .
RESULT: 24.1

QUERY: Which TGI value is on record for c1ccc(COc2ccc3[nH]c4c(ncc5[nH]c6ccccc6c54)c3c2)cc1 ?
RESULT: 30.5

QUERY: Any idea what its TGI is? The compound is CC(=O)C(=C(I)I)c1ccccc1
RESULT: 38.7

---

- Test system: KM12 colon
- PROTOCOL SUMMARY: NCI tumour cell line growth inhibition, 48 h
OBSERVED PROPERTY: GI50

Example results:
# COMPOUND, RESULT
rows = [
    ("O=C(/C=C/c1ccc([N+](=O)[O-])o1)NNC(=O)c1cc2ccccc2cc1O", "2180 nM"),
    ("N#CC1C(N)=NNC1c1ccc(-c2ccc(-c3nc4ccccc4o3)cc2)o1 (stereo not drawn)", "24000 nM"),
]

Now consider a different compound.
QUERY: Value wanted: GI50 (KM12 colon) of entry O=Nc1c2cccnc2n2nnc3ccc(Cl)cc3c12
RESULT: 1540 nM
